Test system: MS2 coat protein
Assay: apparent KD of MS2 coat protein; designed switch direction (-1 OFF switch, 1 ON switch): 1; higher = weaker reporter binding
Conditions: input ligand: FMN 200 uM
Note to self: values exactly at 100 nM are satisfied. So apparent KD of MS2 coat protein at or above 100 nM is satisfied, below is not satisfied.

Given UGGUACAUGGGAGGAUAUCAUGCAGACAUGAGGAUCACCCAUGUAGCCAUGGAGACAUGGGUAUAUGAGAAGGCCCAUGUACCU [JL SSNG1 3.53] (Eterna round: R96, puzzle: Same State NG 2) , state whether its apparent KD of MS2 coat protein is at least 100 nM.
satisfied

---
Given UGGAUCUAGGCUUGCCUGGGUCCAUGCUGACAUGAGGAUCACCCAUGUGCAUCCUACAAGCUUUUUGCUUGUCAGUU (Eterna round: R96, puzzle: Sensor for hsa-mir-208a) , state whether its apparent KD of MS2 coat protein is at least 100 nM.
satisfied

----------
System: MS2 coat protein
Experiment: apparent KD of MS2 coat protein; designed switch direction (-1 OFF switch, 1 ON switch): -1; higher = weaker reporter binding
Conditions: Eterna round: R95; input ligand: FMN 200 uM
Overview of reported apparent KD of MS2 coat protein across a group of sequences:
Use nM as the unit, but write only the number.

See these solved cases before continuing.
Query: apparent KD of MS2 coat protein; subject: AGUUGGCGAGGAUAUACAUGAGGAUCACCCAUGUGAGAGAUACUAGUGAGGUCGAUUGGUAGAAGGCGCUGACG [Mat - Exclusion 3 - Mod of JL D79] (puzzle: Exclusion 3)
222

Query: apparent KD of MS2 coat protein; subject: GGAAAGGUAGGAUAUACGAAGAAAAAGGGUAGAAGAAUAACACAUGAGGAUCACCCAUGUAGAAGGACCAAAGC [Mat - Exclusion 2 - Mod of my Tesla design - D14] (puzzle: Exclusion 2)
96.8

Query: apparent KD of MS2 coat protein; subject: AGUAGUAGUGUCCGAUCCUACAUGAGGAUCACCCAUGUAGCUAGACGUGCACGCGAUGCUCGUCAGACUACCAGAUG [salish99_TOv1_r3_046] (puzzle: Sensor v3, turn-off variant 1)
83.7

Query: apparent KD of MS2 coat protein; subject: GCGAAAGCAAAACAAGUGAACAUGAGGAUCACCCAUGUCCUCAUUUGCUCGUCUUAUAAGCUAUGCGAAAGCAUAGC [Sensor 3, v1 - 9] (puzzle: Sensor v3, turn-off variant 1)
99

Query: apparent KD of MS2 coat protein; subject: GAUGGACAUGAGGAUCACCCAUGUAAGGAUAUACGGUUGGUAGAGAGAGAGAGGAAUGGUAGAAGGUACGGAGG [JR_Exclu1_Sub052] (puzzle: Exclusion 1)
38.7

---
Query: apparent KD of MS2 coat protein; subject: AGUAACUAUCACGAAAGUGAUAGUUACACAAGCAGUGAAACAUGAGGAUCACCCAUGUCCUCAUUUGCUCGUCUUAU [Sensor 3 - 25] (puzzle: Sensor v3, turn-off variant 2)
53.1

Query: apparent KD of MS2 coat protein; subject: CUAGUCCGAGGAUAUAUUAAGUGAUACAUGAGGAUCACCCAUGUAAUUUAAUGGAAAUAAAUAGAAGGCGGACUAG [Mat - Exclusion 5 - JL mod - D52] (puzzle: Exclusion 5)
44.7

Query: apparent KD of MS2 coat protein; subject: ACGUGAUAUCUGUCGGUGGACAUGAGGAUCACCCAUGUAAGCUUUUCGCUCGUCUUAUAACCCGGUGACAGACCUUC [Edraatis] (puzzle: Sensor v3, turn-off variant 1)
33.7

Query: apparent KD of MS2 coat protein; subject: CAUGAUCUUCGGAUCAUGUACAUGAGGAUCACCCAUGUGACGAGUUUAUGGGUGAACAAGCUUUUUGCUCGUCUUAU [Sensor v3 - Turn-off variant 1 - 6] (puzzle: Sensor v3, turn-off variant 1)
60

Query: apparent KD of MS2 coat protein; subject: UUUAAUUUUUUUUUUUUACAAGCUUUUUGCUCGUCUUAUACAUGAGGAUCACCCAUGUGAGUGGAGGGUAAAUUAUC [JMF 88] (puzzle: Sensor v3, turn-off variant 2)
17.8

Query: apparent KD of MS2 coat protein; subject: AGUAACCGUCACGAAAGUGAUGGUUACACAGGCAAAUGUACAUGAGGAUCACCCAUGUCCUCAAUUGCUCGUCUUAU [Sensor 3 - 53] (puzzle: Sensor v3, turn-off variant 2)
115

Query: apparent KD of MS2 coat protein; subject: AGUACUAACACGGCUGUGUUAGUACAAUAAGCUUGUGAAACAUGAGGAUCACCCAUGUCCUCAUAAGCUCGUCUUAU [salish99_TOv2_r3_078] (puzzle: Sensor v3, turn-off variant 2)
18

Query: apparent KD of MS2 coat protein; subject: GGUACUAACACGAUAGUGUUAGUACUAUAAGCUUGUGUUACAUGAGGAUCACCCAUGUCCUCAUAAGCUCGUCUUGU [Mat - Sensor v3 - Turn-off var 2 - D89] (puzzle: Sensor v3, turn-off variant 2)
49.8

Query: apparent KD of MS2 coat protein; subject: UAUUAGCAAGCACGAUCCCACAUGAGGAUCACCCAUGUGCUCGUCUUAUAAGGUACUGUGACGAAAGUCACGGUACC [Sensor 3, v1 - 94] (puzzle: Sensor v3, turn-off variant 1)
64.2

Query: apparent KD of MS2 coat protein; subject: AGAUCACAUGAGGAUCACCCAUGUCAGGAUAUGAUACUAUGUACUUCGGUACAUAGUAUCAGAAGGGACAUAAA [Ex1-3: 69] (puzzle: Exclusion 1)
31.5

Query: apparent KD of MS2 coat protein; subject: AUCGUGAAGAAGGAUAUGGGCCCGGUAAUACGACUAGAAGGUCUGACAUGAGGAUCACCCAUGUGAUACCAAAA [Arorquis] (puzzle: Exclusion 6)
32.2

Query: apparent KD of MS2 coat protein; subject: CAUUACUGCAGGCUUCGGGACAUGAGGAUCACCCAUGUUCGUCUUAUUGAUCUAGGUACGCUGACGUACCUAGAUCU [JL-sv1-2.25 Brourd mod] (puzzle: Sensor v3, turn-off variant 1)
17.3

Query: apparent KD of MS2 coat protein; subject: GGUUGGCGAGGAUAUACAUGAGGAUCACCCAUGUGAGAGAAAAAAGUGAGGAAGACAAGUAGAAGGCGCUGACG [salish99_ex3_r3_035] (puzzle: Exclusion 3)
8540

Query: apparent KD of MS2 coat protein; subject: GGUGCUGGCGCGUCGGUGUUGGUGCAAUAAGCUUGUGAAACAUGAGGAUCACCCAUGUCCUCAUAAGCUCGUCUUAU [salish99_TOv2_r2_086] (puzzle: Sensor v3, turn-off variant 2)
17.7

Attribution: the supplement of paper PMC9170038
